WT ECMax reference
- Test system: MUC1-wt
- Test Method Notes: High-content imaging assay of MUC1-wt total cytoplasm intensity in P cells
- Assay type: cell-based
- Measurement Parameters: MUC1-wt; DMSO = 0, JQ1 (250 nM) = −100% activity
Entry rule: numbers only, all in %.

These recorded examples may help you get a feel for the data.
Compound | Test Value
Cl.N[C@@H]1[C@H]2CC[C@H](C2)[C@H]1C1CCC1 (single isomer, unassigned) [Compound 114-P2] | 9.94
Cl.N[C@H]1[C@H]2CC[C@H](C2)[C@@H]1C1CC1 (single isomer, unassigned) [Compound 109-P2] | −14.32
Cl.N[C@@H]1[C@@H]2CC[C@@H](C2)[C@H]1C1CCCCC1 (racemic) [Compound 118] | −8.52
CC(C)(C)[C@@H]1[C@H]2CC[C@H](C2)[C@H]1N.Cl (racemic) [Compound 115] | 71.79
Cl.N[C@H]1[C@@H]2CC[C@@H](C2)[C@@H]1C1CC1 (single isomer, unassigned) [Compound 110-P1] | −8.95

// query Endpoint output: WT ECMax of Cl.N[C@@H]1[C@H]2CC[C@H](C2)[C@H]1c1ccccc1 (single isomer, unassigned) [Compound 121-P2] . Value?
// result 7.35

// query Endpoint output: WT ECMax of Cl.N[C@@H]1[C@@H]2CC[C@@H](C2)[C@H]1c1ccccc1 (racemic) [Compound 120] . Value?
// result 15.88

====

- System: MUC1-fs
- Test Method Notes: High-content imaging assay of MUC1-fs total cytoplasm intensity in P cells
- Type: cell-based
- Measurement Parameters: MUC1-fs total cytoplasm intensity, P cells, 48 hr incubation
EC50 reference

Compound | Test Value
Cl.N[C@H]1[C@H]2CC[C@H](C2)[C@@H]1C1CCCC1 (single isomer, unassigned) [Compound 116-P2] | > 32 µM
Cl.N[C@H]1[C@@H]2CC[C@@H](C2)[C@@H]1C1CCC1 (racemic) [Compound 114-rac] | 12.9 µM

// query Endpoint output: EC50 of CC(C)C[C@H]1[C@H]2CC[C@H](C2)[C@@H]1N.Cl (single isomer, unassigned) [Compound 112-P1] . Value?
// result > 32 µM

// query Endpoint output: EC50 of Cl.N[C@@H]1[C@@H]2CC[C@@H](C2)[C@H]1C1CCCCC1 (single isomer, unassigned) [Compound 118-P1] . Value?
// result > 32 µM

====

- Test Method Notes: Dynamic Vapor Sorption (DVS) hygroscopicity
- Type: physicochemical
- Measurement Parameters: 25 C., 95% RH
Note to self: use 1 only for DVS (% H2O uptake at 25 C./95% RH) readings below 3%; a reading exactly at 3% still gets -1.

Compound | Assigned Category
CC(C)[C@@H]1[C@H]2CC[C@H](C2)[C@H]1N.O=C(O)/C=C\C(=O)O [Maleate Type A] | 1
CC(C)[C@@H]1[C@H]2CC[C@H](C2)[C@H]1N.O=C(O)/C=C/C(=O)O [Fumarate Type A] | 1
CC(C)[C@@H]1[C@H]2CC[C@H](C2)[C@H]1N.O=C(O)CCC(=O)O [Succinate Type A] | 1
CC(C)[C@@H]1[C@H]2CC[C@H](C2)[C@H]1N (racemic) [Phosphate Type B] | -1
CC(C)C1C2CCC(C2)C1N.Cl (racemic) [HCl salt Type A, reference compound] | -1

Please turn your attention to the following entry.
// query Lab log: compare recorded DVS (% H2O uptake at 25 C./95% RH) with 3%; is it strictly lower for CC(C)[C@@H]1[C@H]2CC[C@H](C2)[C@H]1N [L-malate Type C] ?
// result 1

====

- Test system: MUC1-wt
- Test Method Notes: High-content imaging assay of MUC1-wt total cytoplasm intensity in P cells
- Format: cell-based
- Measurement Parameters: MUC1-wt; DMSO = 0, JQ1 (250 nM) = −100% activity
WT ECMax reference

These recorded examples may help you get a feel for the data.
Compound | Tested System | WT ECMax
Cl.N[C@@H]1[C@@H]2CC[C@@H](C2)[C@H]1C1CCCCC1 (single isomer, unassigned) [Compound 118-P1] | MUC1-wt | 9.54%
Cl.N[C@H]1[C@@H]2CC[C@@H](C2)[C@@H]1C1CCCCC1 (single isomer, unassigned) [Compound 119-P1] | MUC1-wt | −14.31%
CCC[C@H]1[C@@H]2CC[C@@H](C2)[C@@H]1N.Cl [Compound 107-P2] | MUC1-wt | 8.96%
CC(C)C[C@H]1[C@H]2CC[C@H](C2)[C@@H]1N.Cl (racemic) [Compound 112] | MUC1-wt | −8.84%
Cl.N[C@H]1[C@@H]2CC[C@@H](C2)[C@@H]1C1CCCCC1 (racemic) [Compound 119] | MUC1-wt | 14.48%
CC(C)[C@@H]1[C@@H]2CC[C@@H](C2)[C@H]1N.Cl | MUC1-wt | 18.4%
C[C@@H]1[C@H]2CC[C@H](C2)[C@H]1N.Cl (single isomer, unassigned) [Compound 104-P2] | MUC1-wt | −14.86%
Cl.N[C@H]1[C@@H]2CC[C@@H](C2)[C@@H]1C1CCC1 (racemic) [Compound 114-rac] | MUC1-wt | 18.3%

// query Endpoint output: WT ECMax of Cl.N[C@H]1[C@H]2CC[C@H](C2)[C@@H]1C1CCCCC1 (single isomer, unassigned) [Compound 118-P2] . Value?
// result 0%

// query Endpoint output: WT ECMax of Cl.N[C@@H]1[C@@H]2CC[C@@H](C2)[C@H]1c1cccs1 (racemic) . Value?
// result −10.53%

// query Endpoint output: WT ECMax of CCC[C@@H]1[C@H]2CC[C@H](C2)[C@H]1N.Cl (racemic) [Compound 107-rac] . Value?
// result 8.64%

// query Endpoint output: WT ECMax of Cl.N[C@@H]1[C@@H]2CC[C@@H](C2)[C@H]1C1CCCC1 (single isomer, unassigned) [Compound 116-P1] . Value?
// result 18.63%

// query Endpoint output: WT ECMax of CCC[C@@H]1[C@@H]2CC[C@@H](C2)[C@H]1N.Cl [Compound 108-P2] . Value?
// result 16.1%

// query Endpoint output: WT ECMax of Cl.N[C@H]1[C@H]2CC[C@H](C2)[C@@H]1C1CCCC1 (single isomer, unassigned) [Compound 116-P2] . Value?
// result −19.89%

// query Endpoint output: WT ECMax of Cl.N[C@@H]1[C@H]2CC[C@H](C2)[C@H]1C1CCCC1 (single isomer, unassigned) [Compound 117-P2] . Value?
// result −15.43%

// query Endpoint output: WT ECMax of CC(C)C[C@@H]1[C@H]2CC[C@H](C2)[C@H]1N.Cl (single isomer, unassigned) [Compound 111-P1] . Value?
// result −10.33%

====

- Test system: MUC1-fs
- Test Method Notes: High-content imaging assay of MUC1-fs total cytoplasm intensity in P cells
- Assay type: cell-based
- Measurement Parameters: MUC1-fs total cytoplasm intensity, P cells, 48 hr incubation
Reported Metric: EC50 (µM)
Entry rule: numbers only, all in µM.

// query Endpoint output: EC50 of CCC[C@@H]1[C@@H]2CC[C@@H](C2)[C@H]1N.Cl [Compound 108-P2] . Value?
// result 5.6

// query Endpoint output: EC50 of Cl.N[C@H]1[C@@H]2CC[C@@H](C2)[C@@H]1C1CC1 (single isomer, unassigned) [Compound 110-P1, hydrochloride] . Value?
// result 8.49

// query Endpoint output: EC50 of CC(C)[C@@H]1[C@@H]2CC[C@@H](C2)[C@H]1N.Cl [Compound 101] . Value?
// result 0.524

====

ECMax reference
- System: MUC1-fs
- Test Method Notes: High-content imaging assay of MUC1-fs total cytoplasm intensity in P cells
- Type: cell-based
- Measurement Parameters: MUC1-fs; DMSO = 0, JQ1 (250 nM) = −100% activity
Entry rule: numbers only, all in %.

These recorded examples may help you get a feel for the data.
Compound | ECMax [%]
Cl.N[C@@H]1[C@@H]2CC[C@@H](C2)[C@H]1C1CC1 (racemic) [Compound 109] | −73.56
CCC[C@H]1[C@H]2CC[C@H](C2)[C@@H]1N.Cl [Compound 108-P1] | −24.9
Cl.N[C@H]1[C@@H]2CC[C@@H](C2)[C@@H]1C1CC1 (single isomer, unassigned) [Compound 110-P1] | −50.96
CC(C)[C@H]1[C@H]2CC[C@H](C2)[C@@H]1N.Cl | −60.66
C[C@@H]1[C@H]2CC[C@H](C2)[C@H]1N.Cl (single isomer, unassigned) [Compound 104-P1] | −47.64

// query Endpoint output: ECMax of Cl.N[C@H]1[C@H]2CC[C@H](C2)[C@@H]1C1CC1 (single isomer, unassigned) [Compound 109-P2] . Value?
// result −74.31

// query Endpoint output: ECMax of Cl.N[C@@H]1[C@H]2CC[C@H](C2)[C@H]1c1ccccc1 (single isomer, unassigned) [Compound 121-P2] . Value?
// result −9.03

// query Endpoint output: ECMax of CC(C)C[C@@H]1[C@H]2CC[C@H](C2)[C@H]1N.Cl (racemic) [Compound 111] . Value?
// result −9.02

// query Endpoint output: ECMax of Cl.N[C@H]1[C@H]2CC[C@H](C2)[C@@H]1c1ccccc1 (single isomer, unassigned) [Compound 120-P2] . Value?
// result −24.61

// query Endpoint output: ECMax of Cl.N[C@@H]1[C@@H]2CC[C@@H](C2)[C@H]1c1cccs1 (racemic) . Value?
// result −12.17

Data origin, for the record: patent US20240116850A1
